- Measurement target: Cholinesterase (Homo sapiens, UniProt P06276)
- Sequence (P06276 whole entry): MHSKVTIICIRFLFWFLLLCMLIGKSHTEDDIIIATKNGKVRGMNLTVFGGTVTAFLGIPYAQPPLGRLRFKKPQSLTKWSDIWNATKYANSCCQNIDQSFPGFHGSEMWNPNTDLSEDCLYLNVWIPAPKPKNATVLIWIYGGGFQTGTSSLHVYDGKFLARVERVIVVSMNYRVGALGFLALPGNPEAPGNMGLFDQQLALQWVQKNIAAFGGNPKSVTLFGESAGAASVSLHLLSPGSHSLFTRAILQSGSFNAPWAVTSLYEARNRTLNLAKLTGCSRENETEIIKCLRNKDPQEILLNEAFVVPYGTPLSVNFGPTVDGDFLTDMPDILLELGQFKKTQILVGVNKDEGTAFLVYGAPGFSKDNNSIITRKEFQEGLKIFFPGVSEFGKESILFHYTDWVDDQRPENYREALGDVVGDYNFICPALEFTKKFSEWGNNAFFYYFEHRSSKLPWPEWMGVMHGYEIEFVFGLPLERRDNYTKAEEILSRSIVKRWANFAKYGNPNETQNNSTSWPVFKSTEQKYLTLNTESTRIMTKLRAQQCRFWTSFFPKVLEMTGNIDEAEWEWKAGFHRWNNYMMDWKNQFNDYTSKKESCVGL
- Experimental details: Inhibition of BChE (unknown origin) using butyrylthiocholine iodide as substrate incubated for 15 mins by DTNB reagent based ELISA
We begin with a simple list: items and their reported log10(IC50).
// stored as log10 of IC50 expressed in µM

[
  {
    "Compound": "Cc1noc(-c2ccc(N)cc2)n1",
    "log10(IC50)": 2.14
  }
]

Give the reported log10(IC50) for Cc1cc(NS(=O)(=O)c2ccc(NC(=O)COc3ccccc3-c3nc(-c4ccccc4)no3)cc2)no1 (system: Cholinesterase (Homo sapiens, UniProt P06276)). 1.43

Item: Cc1cc(NS(=O)(=O)c2ccc(-n3cc(COc4ccccc4-c4nc(-c5ccccc5)no4)nn3)cc2)no1 1.42

Next compound up: CCCCOc1cc(-c2nc(-c3ccccc3)no2)ccc1N 1.06

Next: CC(CCCCn1c(=O)c2c(ncn2C)n(C)c1=O)=NNC(=O)COc1ccccc1-c1nc(-c2ccccc2)no1 1.18

Record: CCCNC(C)C(=O)Nc1c(C)csc1-c1nc(-c2ccccc2N)no1 (stereo unspecified) 1.74

Try CCCNC(C)C(=O)Nc1c(C)csc1-c1nc(-c2ccccc2)no1 (stereo unspecified) next. 1.52

Then what about the compound Nc1ccc(-c2nc(-c3ccccc3N)no2)cc1 ? 1.93

Also check CCCNC(C)C(=O)Nc1c(C)csc1-c1nc(Cc2ccccc2)no1 (stereo unspecified) 1.62

Likewise for CCCCOc1cc(-c2nc(C)no2)ccc1N ? 1.68

Similarly, CCCNC(C)C(=O)Nc1c(C)csc1-c1nc(C)no1 (stereo unspecified) ? 2.10

Where these numbers come from: ChEMBL document CHEMBL5532757
